target: T1, human FLT3 protein (human, UniProt P36888 27-541, limits assumed); experiment: colorimetric ELISA, periplasmic extract
T1 construct: protein coated in the screening ELISA; also called ELISA FLT3
Listing: ELISA FLT3 (absorbance) of selected binders
Field: numeric (absorbance). Do not append units.

The following binders have reported results that may help.
# binder, ELISA FLT3 (absorbance)
measured = [
    ("FLL26 (VHH, llama anti-FLT3 variable domain; E. coli periplasmic extract) VHH: QVQLQESGGGLVQAGGSLRLSCAASGRTFTTYTVAWFRQAPGKEREFLVASIPTGSNTAYAESVKGRFTISRGNAKNTVYLQMNSLKPEDTAMYYCAARTYFGSSRGYDYWGQGTQVTVSS", 2.9),
    ("FLL43 (VHH, llama anti-FLT3 variable domain; E. coli periplasmic extract) VHH: QVQLQESGGGLVQPGGSLTLSCTASGSTFSINHFAWYRQAPGKQRELVAFISSDGRSTDVESVKGRFTISGDNDKNTAYLQMNGLKPEDTAVYYCYYRGSWGQGTQVTVSS", 2),
    ("FLL154 (VHH, llama anti-FLT3 variable domain; E. coli periplasmic extract) VHH: QVQLQESGGGLVQAGGSLRLSCAVSGRTFSGFGTGWFRQAPGKEREFVAAISWSGGRTHYADSVKGRFTISRDNAKNTVYLQMNSLKPEDTAVYYCAGQVARAYDGNWYSRGDYWGQGTQVTVSS", 4),
]

stdin: So what does the record say about ELISA FLT3 (absorbance) for FLL153 (VHH, llama anti-FLT3 variable domain; E. coli periplasmic extract) VHH: QVQLQESGGGLVQVGGSLMVSCAASGGTFSSYATGWFRQVPGKEREFIAGVSRNSGRTYYAESVKGRFTISRDNAKNTVYLQMNTLKPDDTGVYYCAAARYFTRDAVYTSGDDYDYWGQGTQVTVSS ?
stdout: 1.4
